Test: Metabolic Stability (H = Human)
Type: in vitro ADME
PROPERTY_MEASURED: Metabolic Stability H

Look over these answered cases.
CC(NC(=O)N(C)C1CCN(C)CC1)c1ccc(C#Cc2ccsc2)c(Cl)c1Cl (centres unmarked) [Compound H0759] :: High H High M
Cc1ccc(-c2ccc(C(C)NC(=O)N(C)C3CCN(C)CC3)c(Cl)c2Cl)o1 (centres unmarked) [Compound H0665] :: High
CC(NC(=O)N(C)C1CCN(C)CC1)c1ccc(CO)c(Cl)c1Cl (centres unmarked) [Compound H0633] :: High H High M
Cc1noc(-c2ccc(C(C)NC(=O)N(C)C3CCN(C)CC3)c(Cl)c2Cl)n1 (centres unmarked) [Compound H0596] :: High H High M
CC(NC(=O)N(C)C1CCN(C)CC1)c1ccc(C#CC2CC2)c(Cl)c1Cl (centres unmarked) [Compound H0764] :: High H High M

Now look at this one.
Q: State the recorded Metabolic Stability H for this entry: CN1CCC(N(C)C(=O)NC(CC2CC2)c2ccc(-c3cnccn3)c(Cl)c2Cl)CC1 (centres unmarked) [Compound H0722]
Result: High H High M

----------
Target: GHSR1a (Homo sapiens, UniProt Q92847)
Sequence (Q92847 whole entry): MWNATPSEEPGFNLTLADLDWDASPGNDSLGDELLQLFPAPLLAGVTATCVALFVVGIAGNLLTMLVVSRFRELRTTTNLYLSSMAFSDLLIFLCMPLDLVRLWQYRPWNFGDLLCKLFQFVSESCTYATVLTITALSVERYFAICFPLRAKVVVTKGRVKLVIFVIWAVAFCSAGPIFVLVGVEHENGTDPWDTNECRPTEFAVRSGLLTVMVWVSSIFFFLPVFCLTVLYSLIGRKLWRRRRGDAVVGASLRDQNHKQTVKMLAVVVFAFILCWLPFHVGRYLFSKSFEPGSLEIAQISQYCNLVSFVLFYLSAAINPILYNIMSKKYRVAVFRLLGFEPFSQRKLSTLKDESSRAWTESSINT
Assay: Calcium FLIPR assay, GHSR-1a antagonism (reduction of ghrelin response)
Conditions: HEK293/GHSR1a cells, ghrelin 10 nM
PROPERTY_MEASURED: IC50 (nM)
Quick note: give the figure in nM, leave out the unit.

Q: State the recorded IC50 for this entry: COCc1cncc(-c2ccc(C(C)NC(=O)N(C)C3CCN(C)CC3)c(Cl)c2Cl)c1 (stereo not shown) [Compound H0708]
Result: 1370

Q: State the recorded IC50 for this entry: CC(NC(=O)N(C)C1CCN(C)CC1)c1ccc(C2=CCCCC2)c(Cl)c1Cl (stereo not shown) [Compound H0520]
Result: 202

Q: State the recorded IC50 for this entry: CC(O)c1ccc(-c2ccc(C(C)NC(=O)N(C)C3CCN(C)CC3)c(Cl)c2Cl)s1 (stereo not shown) [Compound H0656]
Result: 7

Q: State the recorded IC50 for this entry: COc1ccc(C(C#N)NC(=O)N(C)C2CCN(C)CC2)c(Cl)c1Br (stereo not shown) [Compound H0658]
Result: 6

Q: State the recorded IC50 for this entry: CC(NC(=O)N(C)C1CCN(C)CC1)c1ccc(-c2cncc(C3=CCCC3)c2)c(Cl)c1Cl (stereo not shown) [Compound H0705]
Result: 53

Q: State the recorded IC50 for this entry: CC(NC(=O)N(C)C1CCN(C)CC1)c1ccc(-c2cncc(C#N)c2)c(Cl)c1Cl (stereo not shown) [Compound H0613]
Result: 20

Q: State the recorded IC50 for this entry: CN1CCC(N(C)C(=O)NC(c2ccc(-c3cncnc3)c(Cl)c2Cl)C(F)(F)F)CC1 (stereo not shown) [Compound H0686]
Result: 14

Q: State the recorded IC50 for this entry: CCN(C(=O)NC(c1ccc(-c2cnccn2)c(Cl)c1Cl)C(F)(F)F)C1CCN(C)CC1 (stereo not shown) [Compound H0909]
Result: 12

Q: State the recorded IC50 for this entry: COC(=O)C(NC(=O)N(C)C1CCN(C)CC1)c1ccc(-c2cnccn2)c(Cl)c1Cl (stereo not shown) [Compound H0922]
Result: 2800

Q: State the recorded IC50 for this entry: COC(=O)C(NC(=O)N(C)C1CCN(C)CC1)c1ccc(-c2cccs2)c(Cl)c1Cl (stereo not shown) [Compound H0660]
Result: 69

Q: State the recorded IC50 for this entry: Cc1cncc(-c2ccc(C(C)NC(=O)N(C)C3CCN(C)CC3)c(Cl)c2Cl)n1 (stereo not shown) [Compound H0815]
Result: 176

Q: State the recorded IC50 for this entry: CC(NC(=O)N(O)C1CCN(C)CC1)c1ccc(-c2cccs2)c(Cl)c1Cl (stereo not shown) [Compound H0627]
Result: 4

Q: State the recorded IC50 for this entry: COC(=O)c1cncc(-c2ccc(C(C)NC(=O)N(C)C3CCN(C)CC3)c(Cl)c2Cl)c1 (stereo not shown) [Compound H0635]
Result: 1090

Q: State the recorded IC50 for this entry: CN1CCC(N(O)C(=O)NC(CC2CC2)c2ccc(-c3cnccn3)c(Cl)c2Cl)CC1 (stereo not shown) [Compound H0761]
Result: 0.2

Q: State the recorded IC50 for this entry: CC(NC(=O)N(C)C1CCN(C)CC1)c1ccc(C#Cc2cscn2)c(Cl)c1Cl (stereo not shown) [Compound H0751]
Result: 6
